Literature IC50 values, system: Mcl-1 (Homo sapiens, UniProt Q07820).
Sequence (Q07820 whole entry): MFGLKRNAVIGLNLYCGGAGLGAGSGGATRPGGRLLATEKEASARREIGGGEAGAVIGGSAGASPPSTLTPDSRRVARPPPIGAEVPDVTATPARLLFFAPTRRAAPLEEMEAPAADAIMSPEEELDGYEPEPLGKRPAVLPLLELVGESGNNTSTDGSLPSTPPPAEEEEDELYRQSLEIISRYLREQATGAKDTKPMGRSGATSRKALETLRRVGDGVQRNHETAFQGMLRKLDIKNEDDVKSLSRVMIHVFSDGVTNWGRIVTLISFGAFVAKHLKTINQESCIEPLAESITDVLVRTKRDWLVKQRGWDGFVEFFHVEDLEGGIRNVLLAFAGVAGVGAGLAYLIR
Give a bare numeral; the unit µM is implied.

Worked cases, answers included:
Cn1nc2cc1CSc1cc(c3ccccc3c1)OCCCc1c(C(=O)O)n(C)c3c(c(Cl)ccc13)-c1c(nn3c1OCC3)CSC2
0.015
Cn1nc2c(Cl)c1CSc1cc(c3ccccc3c1)OCCCc1c(C(=O)O)n(C)c3c(c(Cl)ccc13)-c1c(nn3c1CCCC3)CSC2
0.0143
Cn1c(C(=O)O)c2c3ccc(Cl)c(c31)-c1c(nn3c1CCC3)CSCc1csc(n1)CSc1cc(c3ccccc3c1)OCCC2
0.0087
C[C@@H]1[C@@H](C)S(=O)(=O)NC(=O)c2ccc3c(c2)N(C[C@@H]2CC[C@H]2[C@@H](OCC(=O)N2CCCCC2)C2=C[C@H]1C2)C[C@@]1(CCCc2c1ccc(Cl)c2F)CO3
0.014
Cn1nc2cc1CSc1cc(c3ccc(F)cc3c1)OCCCc1c(C(=O)O)n(C)c3c(c(Cl)ccc13)-c1c(nn3c1CCC3)CN(S(=O)(=O)Cc1ccccc1)C2
0.012

Lookup: Enter IC50 (test system Mcl-1 (Homo sapiens, UniProt Q07820)) for `Cc1c(C(=O)O)n2c3ccc(Cl)c(c13)-c1c(nn(C)c1C)CN(S(=O)(=O)C(F)(F)F)Cc1cc(n(C)n1)CSc1cc(c3ccccc3c1)OCCC2`
Found: 0.005

Lookup: // fetch IC50; item: `O=C(O)c1cc(S(=O)(=O)Nc2ccc(Br)cc2)c2ccccc2c1O` ; system: Mcl-1 (Homo sapiens, UniProt Q07820)
Found: 10.9

----------
A compilation of published pIC50 results with Mcl-1 (Homo sapiens, UniProt Q07820).
Just so you know, pIC50 here is -log10 of the concentration in molar units; reply with that number alone.

Completed entries (count: 5):
Cc1cc2c(C(=O)NC3Cc4ccccc4C3)c(O)c(O)cc2c(O)c1-c1c(C)cc2c(C(=O)NC3Cc4ccccc4C3)c(O)c(O)cc2c1O
6.46
Cc1c2c(nn1C)CSCc1cc(n(C)n1)CSc1cc(c3ccc(F)cc3c1)OCCCn1c(C(=O)O)c(C(F)(F)F)c3c-2c(Cl)ccc31
7.82
C[C@@H]1[C@@H](C)S(=O)(=O)NC(=O)c2ccc3c(c2)N(C[C@@H]2CC[C@H]2[C@@H](OCCN2CCN(C)CC2=O)C2=C[C@H]1C2)C[C@@]1(CCCc2c1ccc(Cl)c2F)CO3
7.82
Cn1nc2cc1CSc1cc(c3ccccc3c1)OCCCc1c(C(=O)O)n(C)c3c(c(Cl)ccc13)-c1c(nn3c1OCCC3)CSC2
7.80
Cn1nc2cc1CSc1cc(c3ccc(F)cc3c1)OCCCc1c(C(=O)O)n(C)c3c(c(Cl)ccc13)-c1c(nn3c1CCCCC3)CSC2
7.80

Here is another compound to look at.
Lookup: State the measured pIC50 (Mcl-1 (Homo sapiens, UniProt Q07820)) of `C[C@@H]1[C@@H](C)S(=O)(=O)NC(=O)c2ccc3c(c2)N(C[C@@H]2CC[C@H]2[C@@H](OCCN2CCC(F)(F)CC2)C2=C[C@H]1C2)C[C@@]1(CCCc2c1ccc(Cl)c2F)CO3`
Found: 7.64
